Measured 0X2R agonist activity (3 μM, %), listed per entry.
# test-target: human orexin type 2 receptor (Homo sapiens, UniProt O43614)
# Construct: expressed in transfected cells
# Sequence (O43614 1-444): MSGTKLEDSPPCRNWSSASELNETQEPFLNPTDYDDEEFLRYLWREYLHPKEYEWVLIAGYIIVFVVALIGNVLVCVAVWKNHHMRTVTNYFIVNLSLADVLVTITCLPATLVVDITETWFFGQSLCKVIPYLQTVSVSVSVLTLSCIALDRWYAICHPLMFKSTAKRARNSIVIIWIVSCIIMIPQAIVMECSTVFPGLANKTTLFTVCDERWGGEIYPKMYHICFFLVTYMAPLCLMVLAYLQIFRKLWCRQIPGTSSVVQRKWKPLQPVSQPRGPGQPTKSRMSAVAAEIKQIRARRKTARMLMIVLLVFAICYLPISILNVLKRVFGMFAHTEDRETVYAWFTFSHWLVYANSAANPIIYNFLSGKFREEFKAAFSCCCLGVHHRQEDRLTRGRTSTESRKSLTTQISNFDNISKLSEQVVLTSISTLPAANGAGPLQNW
# test-method-notes: Measurement of orexin type 2 receptor agonist activity (calcium fluorescence, Fluo-4 AM, FDSS) in CHO cells forcibly expressing human OX2 receptor
# Type: cell-based
# experimental-conditions: test compound 3 μM, DMSO = 0%, orexin A (human) 10 nM = 100%

Per the records, this compound ( CS(=O)(=O)NC1CCc2ccc(C(F)(F)F)c(=O)n2C1Cc1cccc(-c2ccccc2)c1 (racemic) ) has 0X2R agonist activity (3 μM, %) equal to 112%

For record CC(C)n1cnc2c(c1=O)[C@@H](Cc1cccc(-c3cc(F)cc(F)c3)c1)[C@@H](NS(=O)(=O)C1(F)CC1)CC2 (relative stereo) the listed 0X2R agonist activity (3 μM, %) is 94%

Briefly, 0X2R agonist activity (3 μM, %) measured for CC(C)n1cnc2c(c1=O)[C@@H](Cc1cccc(-c3cccc(F)c3F)c1)[C@@H](NS(=O)(=O)C1CC1)CC2 : 97%

Per the record, CC(C)n1cnc2c(c1=O)C(Cc1cccc(-c3ccccc3)c1)C(NS(C)(=O)=O)C(F)C2=O (racemic) has 0X2R agonist activity (3 μM, %) of 100%

Reported 0X2R agonist activity (3 μM, %) ( CC(C)n1cnc2c(c1=O)[C@@H](Cc1cccc(-c3ccccc3)c1)[C@@H](NS(=O)(=O)C1CC1)CC2 (racemic) ) = 111%

Kindly note the recorded 0X2R agonist activity (3 μM, %) for CC(C)n1cnc2c(c1=O)C(Cc1cccc(-c3cccc(F)c3)c1)C(NS(=O)(=O)C1(F)CC1)CC2 (stereo not shown) , which is 90%

response.value for CC(C)n1cnc2c(c1=O)[C@@H](Cc1cccc(-c3cc(F)cc(F)c3)c1F)[C@@H](NS(=O)(=O)C1CC1)CC2 (field: 0X2R agonist activity (3 μM, %)) = 94%

Record summary for Cc1cc(C)c(=O)n2c1CC[C@H](NS(C)(=O)=O)[C@@H]2Cc1cccc(-c2ccccc2)c1 (racemic) : reported 0X2R agonist activity (3 μM, %) = 112%

Notebook: CC(C)n1cnc2c(c1=O)[C@@H](Cc1csc(-c3ccccc3F)n1)[C@@H](NS(C)(=O)=O)CC2 (relative stereo) , 0X2R agonist activity (3 μM, %) read as 104%

Per the records, this compound ( CC(C)n1cnc2c(c1=O)[C@@H](Cc1cccc(-c3ccccc3)c1F)[C@@H](NS(=O)(=O)C1(F)CC1)CC2 ) has 0X2R agonist activity (3 μM, %) equal to 94%

---

The following compounds are listed with their measured 0X2R agonist activity (3 μM, %) values.
# test-target: human orexin type 2 receptor (Homo sapiens, UniProt O43614)
# Construct: expressed in transfected cells
# test-method-notes: Measurement of orexin type 2 receptor agonist activity (calcium fluorescence, Fluo-4 AM, FDSS) in CHO cells forcibly expressing human OX2 receptor
# Assay type: cell-based
# experimental-conditions: test compound 3 μM, DMSO = 0%, orexin A (human) 10 nM = 100%
Entry rule: numbers only, all in %.

>>> quantitative_result("CC(C)n1cnc2c(c1=O)[C@@H](Cc1cccc(-c3cc(F)cc(F)c3)c1F)[C@@H](NS(=O)(=O)CF)CC2")
90
>>> quantitative_result("CCS(=O)(=O)N[C@H]1CCc2ncn(C(C)C)c(=O)c2[C@H]1Cc1cccc(-c2cccc(F)c2)c1 (racemic)")
96

Recorded 0X2R agonist activity (3 μM, %) (compound CCS(=O)(=O)NC1CCc2c(C)nn(C)c(=O)c2C1Cc1cccc(-c2ccccc2)c1 (racemic) ): 82

// recorded 0X2R agonist activity (3 μM, %) for CC(C)n1cnc2c(c1=O)C(Cc1csc(-c3ccccc3)n1)C(NS(=O)(=O)C1(F)CC1)CC2 (stereo not shown) : 91

Form: compound = CC(C)n1cnc2c(c1=O)[C@@H](Cc1cccc(-c3ccccc3)c1F)[C@@H](NS(C)(=O)=O)[C@H](F)[C@H]2F (racemic) ; 0X2R agonist activity (3 μM, %) = 85

// CC(C)n1cnc2c(c1=O)[C@@H](Cc1csc(-c3ccccc3F)n1)[C@@H](NS(=O)(=O)C1(F)CC1)CC2 (relative stereo) : 0X2R agonist activity (3 μM, %) value = 93

Documented 0X2R agonist activity (3 μM, %) of CCS(=O)(=O)N[C@H]1CCc2ncn(C(C)C)c(=O)c2[C@H]1Cc1cccc(-c2cc(C)ccn2)c1 (racemic) : 107

Lab note: measured 0X2R agonist activity (3 μM, %) of CC(C)n1ccc2c(c1=O)[C@@H](Cc1cccc(-c3ccccc3)n1)[C@@H](NS(C)(=O)=O)CC2 (racemic) was 104

Lab book: 0X2R agonist activity (3 μM, %) of Cc1ccc(=O)n2c1CC[C@H](NS(C)(=O)=O)[C@@H]2Cc1cccc(-c2ccccc2)c1 (racemic) noted as 97

---

# test-target: human orexin type 2 receptor (Homo sapiens)
# Construct: expressed in transfected cells
# Sequence (O43614 1-444): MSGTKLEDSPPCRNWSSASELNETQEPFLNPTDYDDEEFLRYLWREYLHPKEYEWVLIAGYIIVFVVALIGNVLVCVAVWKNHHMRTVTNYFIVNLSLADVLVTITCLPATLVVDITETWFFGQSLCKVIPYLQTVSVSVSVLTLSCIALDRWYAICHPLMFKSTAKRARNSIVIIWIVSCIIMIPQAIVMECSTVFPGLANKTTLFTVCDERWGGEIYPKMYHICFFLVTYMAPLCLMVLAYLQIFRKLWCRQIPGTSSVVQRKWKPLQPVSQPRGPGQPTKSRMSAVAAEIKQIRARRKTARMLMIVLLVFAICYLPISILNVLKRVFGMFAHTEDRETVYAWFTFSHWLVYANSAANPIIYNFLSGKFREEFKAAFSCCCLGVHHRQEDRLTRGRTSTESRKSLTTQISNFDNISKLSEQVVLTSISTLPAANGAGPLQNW
# test-method-notes: Measurement of orexin type 2 receptor agonist activity (calcium fluorescence, Fluo-4 AM, FDSS) in CHO cells forcibly expressing human OX2 receptor
# Type: cell-based
# experimental-conditions: test compound 3 μM, DMSO = 0%, orexin A (human) 10 nM = 100%
# 0X2R agonist activity (3 μM, %) annotations
Please state the figure in %; there is no need to write the unit.

Quick note, 0X2R agonist activity (3 μM, %) for CC(C)n1cnc2c(c1=O)[C@@H](Cc1cccc(-c3cccc(F)c3F)c1F)[C@@H](NS(=O)(=O)C1(F)CC1)CC2 landed at 98

---

# test-target: human orexin type 2 receptor (Homo sapiens, UniProt O43614)
# Construct: expressed in transfected cells
# test-method-notes: Measurement of orexin type 2 receptor agonist activity (calcium fluorescence, Fluo-4 AM, FDSS) in CHO cells forcibly expressing human OX2 receptor
# Assay type: cell-based
# experimental-conditions: test compound 3 μM, DMSO = 0%, orexin A (human) 10 nM = 100%
Outcome label depends on 0X2R agonist activity (3 μM, %) relative to 90%: at/above gives yes, below gives no.

These recorded examples may help you get a feel for the data.
>>> label("Cc1ccc2n(c1=O)[C@@H](Cc1cccc(-c3cc(F)cc(F)c3)n1)[C@@H](NS(C)(=O)=O)CC2 (racemic)")
"no"
>>> label("Cn1cc2n(c1=O)C(Cc1cccc(-c3ccccc3)c1)C(NC(=O)[C@@H]1CCCO1)CC2 (mixture of isomers)")
"no"
>>> label("CC(C)n1cnc2c(c1=O)[C@@H](Cc1cccc(-c3ccccc3)c1F)[C@@H](NS(=O)(=O)C1CC1)CC2")
"yes"

Task item: Quick check: does CC(C)c1nn(C)c2c(c1=O)[C@@H](Cc1cccc(-c3ccccc3)c1)[C@@H](NS(C)(=O)=O)CC2 (relative stereo) [Example 161] have 0X2R agonist activity (3 μM, %) greater than or equal to 90%?
Reply: yes

---

# test-target: human orexin type 2 receptor (Homo sapiens)
# Construct: expressed in transfected cells
# test-method-notes: Measurement of orexin type 2 receptor agonist activity (calcium fluorescence, Fluo-4 AM, FDSS) in CHO cells forcibly expressing human OX2 receptor
# Format: cell-based
# experimental-conditions: test compound 3 μM, DMSO = 0%, orexin A (human) 10 nM = 100%
Entries and their measured 0X2R agonist activity (3 μM, %) follow.
Write down the numeric answer in % and omit the unit.

A selection of reference data follows.
>>> quantitative_result("CC(C)c1nn(C)c2c(c1=O)[C@@H](Cc1cccc(-c3ccccc3)c1)[C@@H](NS(C)(=O)=O)CC2 (racemic) [Example 158]")
101
>>> quantitative_result("CCn1c(C)nc2c(c1=O)[C@@H](Cc1cccc(-c3cccc(C)c3)c1)[C@@H](NS(C)(=O)=O)CC2 (racemic)")
100
>>> quantitative_result("CS(=O)(=O)N[C@H]1CCc2ccc(Cl)c(=O)n2[C@H]1Cc1cccc(-c2ccccc2)c1 (racemic)")
106

As a next step, examine the compound that follows.
The compound Cc1cc2n(c(=O)c1)[C@@H](Cc1cccc(-c3ccccc3)c1)[C@@H](NS(C)(=O)=O)CC2 (racemic) showed 0X2R agonist activity (3 μM, %) equal to 107
